# experimental_details: Apparent permeability from basolateral to apical side of human Caco-2 cell membrane
# Format: ADME, cell-based
value_type: Papp B→A (×10⁻⁶ cm/s)
Lab book: enter the figure in ×10⁻⁶ cm/s, no units written.

Use these answered entries as a reference point.
- smiles_input: "COc1cc2c(cc1OC)CN(C(=O)c1ccc3cc(O)ccc3c1)CC2"
  value_type: "Papp B→A"
  unit_tag: "×10⁻⁶ cm/s"
  data_value: 190
- smiles_input: "COc1cc2c(cc1OC)CN(C(=O)c1ccc(-c3ccc(O)cc3)cc1)CC2"
  value_type: "Papp B→A"
  unit_tag: "×10⁻⁶ cm/s"
  data_value: 277

Input: State its Papp B→A for this molecule: `COc1cc2c(cc1OC)CN(C(=O)c1ccc(-c3ccccc3)cc1)CC2`
Output: 244

Input: State its Papp B→A for this molecule: `COc1cc2c(cc1OC)CN(Cc1ccc3cc(O)ccc3c1)CC2`
Output: 235

Input: State its Papp B→A for this molecule: `COc1cc2c(cc1OC)CN(Cc1cccc(-c3ccccc3)c1)CC2`
Output: 366

Input: State its Papp B→A for this molecule: `COc1cc2c(cc1OC)CN(Cc1ccccc1-c1ccccc1)CC2`
Output: 197

Input: State its Papp B→A for this molecule: `COc1cc2c(cc1OC)CN(Cc1ccc(-c3ccc(O)cc3)cc1)CC2`
Output: 60.9

Input: State its Papp B→A for this molecule: `COc1cc2c(cc1OC)CN(C(=O)c1ccc3ccccc3c1)CC2`
Output: 415

Input: State its Papp B→A for this molecule: `COc1cc2c(cc1OC)CN(Cc1ccc3ccccc3c1)CC2`
Output: 180

Input: State its Papp B→A for this molecule: `COc1ccc2cc(C(=O)N3CCc4cc(OC)c(OC)cc4C3)ccc2c1`
Output: 123

Input: State its Papp B→A for this molecule: `COc1cc2c(cc1OC)CN(Cc1ccc(-c3ccccc3)cc1)CC2`
Output: 141

----------
# Test system: Caco-2
# experimental_details: Apparent permeability from apical to basolateral side of human Caco-2 cell membrane
# Format: ADME, cell-based
value_type: Papp (×10⁻⁶ cm/s)
Lab book: enter the figure in ×10⁻⁶ cm/s, no units written.

Input: State its Papp for this compound: `COc1ccc2cc(CN3CCc4cc(OC)c(OC)cc4C3)ccc2c1`
Output: 18.7

----------
# Tested on: Caco-2
# experimental_details: Apparent permeability from basolateral to apical side of human Caco-2 cell membrane
# Type: ADME, cell-based
value_type: Papp (nm/s)
Lab book: enter the figure in nm/s, no units written.

Input: State its Papp for this compound: `COc1ccc2cc(CN3CCc4cc(OC)c(OC)cc4C3)ccc2c1`
Output: 677

----------
# system_name: BCRP (ABCG2) (Homo sapiens, UniProt Q9UNQ0)
# Sequence (Q9UNQ0 whole entry): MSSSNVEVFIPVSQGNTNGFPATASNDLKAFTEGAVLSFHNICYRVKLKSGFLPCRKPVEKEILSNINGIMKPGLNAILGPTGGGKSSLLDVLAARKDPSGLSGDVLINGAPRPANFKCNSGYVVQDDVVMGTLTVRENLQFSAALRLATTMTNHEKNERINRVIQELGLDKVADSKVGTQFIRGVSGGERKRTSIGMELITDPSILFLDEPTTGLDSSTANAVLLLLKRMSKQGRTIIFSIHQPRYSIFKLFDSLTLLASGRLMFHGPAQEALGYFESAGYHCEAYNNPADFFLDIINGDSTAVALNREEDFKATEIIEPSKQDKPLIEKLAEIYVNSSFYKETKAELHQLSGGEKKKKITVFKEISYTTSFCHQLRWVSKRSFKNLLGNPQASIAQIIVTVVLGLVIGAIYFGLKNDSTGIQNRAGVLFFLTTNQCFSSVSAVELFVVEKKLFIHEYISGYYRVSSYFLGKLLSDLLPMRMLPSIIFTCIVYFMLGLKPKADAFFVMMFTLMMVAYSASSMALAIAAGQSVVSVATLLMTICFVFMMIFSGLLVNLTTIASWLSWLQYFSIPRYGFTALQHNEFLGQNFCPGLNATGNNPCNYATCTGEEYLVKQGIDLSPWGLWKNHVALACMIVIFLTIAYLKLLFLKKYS
# experimental_details: Inhibition of human BCRP mediated [3H]mitoxantrone transport activity in human Caco-2 cells at 100 uM
# Type: cell-based
# test_context: Caco-2, probe [3H]mitoxantrone
value_type: inhibition at 100 µM (%)
Lab book: enter the figure in %, no units written.

Input: State its inhibition at 100 µM for this compound: `COc1cc2c(cc1OC)CN(Cc1ccc(-c3ccc(O)cc3)cc1)CC2`
Output: 19

----------
# experimental_details: Apparent permeability from apical to basolateral side of human Caco-2 cell membrane
# Assay type: ADME, cell-based
Hi all, reminder that labels come from Papp A→B, split as bin A (below 30 ×10⁻⁶ cm/s), bin B (30 ×10⁻⁶ cm/s to below 40 ×10⁻⁶ cm/s), bin C (40 ×10⁻⁶ cm/s or more)

Look over these answered cases.
- smiles_input: "COc1cc2c(cc1OC)CN(Cc1ccc(-c3ccc(O)cc3)cc1)CC2"
  group_label: "bin C"
- smiles_input: "COc1cc2c(cc1OC)CN(Cc1ccc3cc(O)ccc3c1)CC2"
  group_label: "bin B"
- smiles_input: "COc1cc2c(cc1OC)CN(C(=O)c1ccc3ccccc3c1)CC2"
  group_label: "bin B"
- smiles_input: "COc1cc2c(cc1OC)CN(C(=O)c1ccc(-c3ccc(O)cc3)cc1)CC2"
  group_label: "bin A"
- smiles_input: "COc1cc2c(cc1OC)CN(Cc1ccccc1-c1ccccc1)CC2"
  group_label: "bin A"
- smiles_input: "COc1cc2c(cc1OC)CN(Cc1ccc(-c3ccccc3)cc1)CC2"
  group_label: "bin C"
- smiles_input: "COc1ccc2cc(C(=O)N3CCc4cc(OC)c(OC)cc4C3)ccc2c1"
  group_label: "bin A"
- smiles_input: "COc1cc2c(cc1OC)CN(C(=O)c1ccc(-c3ccccc3)cc1)CC2"
  group_label: "bin C"
- smiles_input: "COc1cc2c(cc1OC)CN(Cc1ccc3ccccc3c1)CC2"
  group_label: "bin A"

Please turn your attention to the following entry.
Input: Assign a category based on measured Papp A→B for `COc1cc2c(cc1OC)CN(C(=O)c1ccc3cc(O)ccc3c1)CC2` and give only the class name.
Output: bin A
